SYSTEM_NAME: recombinant human MAO-B (Homo sapiens, UniProt P27338)
Construct: purchased Sigma-Aldrich M7441; host or cells: baculovirus-infected insect cells
Sequence (P27338 whole entry): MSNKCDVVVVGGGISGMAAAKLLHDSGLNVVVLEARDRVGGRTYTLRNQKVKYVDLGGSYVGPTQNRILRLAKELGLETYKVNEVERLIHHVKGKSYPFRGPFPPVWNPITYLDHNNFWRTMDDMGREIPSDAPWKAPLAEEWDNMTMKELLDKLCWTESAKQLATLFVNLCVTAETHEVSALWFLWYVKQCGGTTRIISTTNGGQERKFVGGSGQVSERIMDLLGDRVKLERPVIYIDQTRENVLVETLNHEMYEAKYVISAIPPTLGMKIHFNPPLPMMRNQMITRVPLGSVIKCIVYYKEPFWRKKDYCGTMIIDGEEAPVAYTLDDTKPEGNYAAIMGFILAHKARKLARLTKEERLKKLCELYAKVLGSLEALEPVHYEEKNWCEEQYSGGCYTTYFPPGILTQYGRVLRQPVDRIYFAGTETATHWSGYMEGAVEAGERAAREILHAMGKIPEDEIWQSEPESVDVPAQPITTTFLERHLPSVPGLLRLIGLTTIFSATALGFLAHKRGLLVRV
ASSAY_REMARKS: Monoamine oxidase assay (Amplex Red), MAO-B
Format: biochemical
CONDITION_LABEL: n = 3; read-out: IC50 ± SEM, Human MAO-B
pIC50: −log10 of the molar value.
Listed here: items and their measured pIC50.
EXPERIMENTAL_READOUT: pIC50

MOLECULE: Cn1c(=O)[nH]c(=O)c2c1nc1n2CCN(Cc2cccc(C(F)(F)F)c2)C1 [Compound 13b]
VAL: < 5.00

MOLECULE: C#CCn1c(=O)c2c(nc3n2CCN(CCc2ccccc2OC)C3)n(CC)c1=O [Compound 20i]
VAL: < 5.00

MOLECULE: CCn1c(=O)c2c(nc3n2CCN(Cc2cccc(C(F)(F)F)c2F)C3)n(C)c1=O [Compound 14l]
VAL: > 5.00

MOLECULE: CCn1c(=O)n(C)c(=O)c2c1nc1n2CCN(Cc2cc(Cl)cc(Cl)c2)C1 [Compound 16b]
VAL: 6.87

Data credit: paper PMC6028563
